Below, each of the molecules is paired with its reported z-score value.
ASSAY_SYSTEM: Metabotropic glutamate receptor 8 (Rattus norvegicus) (UniProt P70579)
Sequence (P70579 whole entry, looked up): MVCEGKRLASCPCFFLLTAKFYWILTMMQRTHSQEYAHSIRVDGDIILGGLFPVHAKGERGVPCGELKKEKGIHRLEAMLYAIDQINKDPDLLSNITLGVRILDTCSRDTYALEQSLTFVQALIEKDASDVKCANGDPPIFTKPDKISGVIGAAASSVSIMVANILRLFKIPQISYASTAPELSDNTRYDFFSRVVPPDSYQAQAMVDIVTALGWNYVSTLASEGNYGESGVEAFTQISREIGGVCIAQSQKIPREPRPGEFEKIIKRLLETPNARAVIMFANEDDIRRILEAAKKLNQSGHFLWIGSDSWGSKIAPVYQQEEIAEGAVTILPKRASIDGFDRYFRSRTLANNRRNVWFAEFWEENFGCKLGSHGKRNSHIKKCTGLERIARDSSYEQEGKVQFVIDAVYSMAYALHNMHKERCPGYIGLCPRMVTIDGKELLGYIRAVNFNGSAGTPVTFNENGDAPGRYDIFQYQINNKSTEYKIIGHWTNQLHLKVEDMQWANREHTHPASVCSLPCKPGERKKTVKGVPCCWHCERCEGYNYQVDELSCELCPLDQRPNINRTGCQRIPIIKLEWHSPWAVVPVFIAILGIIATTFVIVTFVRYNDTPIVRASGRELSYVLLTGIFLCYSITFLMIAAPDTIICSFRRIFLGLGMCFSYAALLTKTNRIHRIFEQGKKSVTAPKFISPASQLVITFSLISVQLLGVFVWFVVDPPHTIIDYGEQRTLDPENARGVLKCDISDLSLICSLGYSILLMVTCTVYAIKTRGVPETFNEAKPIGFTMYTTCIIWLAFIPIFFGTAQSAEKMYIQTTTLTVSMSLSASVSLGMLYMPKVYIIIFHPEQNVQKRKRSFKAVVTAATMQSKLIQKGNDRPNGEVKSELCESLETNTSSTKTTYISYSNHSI
TEST_METHOD_NOTES: mGluR8 Gi/Go-coupled signaling modulation – cell-based, rat, thallium flux, HTS, primary screen (AID 488969)
CONDITION_LABEL: HEK293 rat mGluR8, GIRK (G protein-gated inwardly rectifying potassium channel) thallium flux, FluoZin2; at 10 µM; stronger effect = higher value; submaximal glutamate (EC20) added with thallium
Over roughly 110,000 compounds, “z-score” has its median near -0.1; the highest 2% begin near 2. This is one part of a sample in which the highest values are shown more often than they occur.
Would you mind answering with just the numeric figure?

molecule="CN1C2C=C3C(C#N)=C(N)C(C#N)(C#N)[C@@H](c4cccs4)C3C1CC2 (stereo partly drawn)" reported_endpoint=z-score recorded_measurement=2.54
molecule=O=C(CSc1nc(C2CC2)nc2ccccc12)NCc1ccc2c(c1)OCO2 reported_endpoint=z-score recorded_measurement=-0.21
molecule=O=C(NCCSc1c[nH]c2ccccc12)c1ccco1 reported_endpoint=z-score recorded_measurement=3.57
molecule=Cn1c(Cc2csc(N)n2)nnc1SCC(=O)NCc1ccccc1 reported_endpoint=z-score recorded_measurement=0.898
molecule=O=C(O)c1ccc(N2C(=O)c3cccc(Oc4ccc(Cl)cc4)c3C2=O)cc1 reported_endpoint=z-score recorded_measurement=0.79

## Input Param readout = z-score; param system = Metabotropic glutamate receptor 8 (Rattus norvegicus) (UniProt P70579); param query = `CCOc1cccc(-c2cc(-c3n[nH]c(=S)n3CC)c3ccccc3n2)c1` ; response: value
## Output 2.09

## Input Param readout = z-score; param system = Metabotropic glutamate receptor 8 (Rattus norvegicus) (UniProt P70579); param query = `CCCCOC(=O)c1ccc(NC(=O)c2nn(C)cc2Br)cc1` ; response: value
## Output -0.112

## Input Param readout = z-score; param system = Metabotropic glutamate receptor 8 (Rattus norvegicus) (UniProt P70579); param query = `CCCCOC(=O)c1ccc(NC(=O)c2cnccn2)cc1` ; response: value
## Output 0.00424

Values were extracted from PubChem BioAssay AID488969.
